Recorded RNAcompete 7-mer binding Z-score by entry
tested on: RBM10 RRM1-ZnF (GST-tagged construct); assay: RNAcompete 7-mer binding Z-score; higher = stronger binding preference;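 note: 20 pmol protein with 1.5 nmol RNA pool for 30 min at 4°C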
The full ranking holds about 16,000 sequences; the median of “Z-score” is about -0.37, and the highest 2% start at about 3.2. Only a selection was taken, and the highest values are over-represented in it overall.
VALUE TYPE: RNAcompete 7-mer binding Z-score

INSERT INTO assay_data (item_sequence, target_or_test_system, endpoint_value) VALUES
  ('UUAGGCU', 'RBM10 RRM1-ZnF (GST-tagged construct)', 0.095),
  ('GUGAGGC', 'RBM10 RRM1-ZnF (GST-tagged construct)', 1.53),
  ('AUAGGGG', 'RBM10 RRM1-ZnF (GST-tagged construct)', 3.9),
  ('GUAGGGA', 'RBM10 RRM1-ZnF (GST-tagged construct)', 3.87),
  ('UGACCAC', 'RBM10 RRM1-ZnF (GST-tagged construct)', -0.49),
  ('AUACACC', 'RBM10 RRM1-ZnF (GST-tagged construct)', -0.795),
  ('UUAGGGG', 'RBM10 RRM1-ZnF (GST-tagged construct)', 2.4),
  ('UUUUAAC', 'RBM10 RRM1-ZnF (GST-tagged construct)', -0.818),
  ('CAGGUAG', 'RBM10 RRM1-ZnF (GST-tagged construct)', 2.32),
  ('GGGGAUA', 'RBM10 RRM1-ZnF (GST-tagged construct)', 3.45),
  ('AUAAAGG', 'RBM10 RRM1-ZnF (GST-tagged construct)', 1.64),
  ('GCCAGAC', 'RBM10 RRM1-ZnF (GST-tagged construct)', -0.386),
  ('AUGAGGC', 'RBM10 RRM1-ZnF (GST-tagged construct)', 0.969),
  ('UUUUAUC', 'RBM10 RRM1-ZnF (GST-tagged construct)', -0.873),
  ('AGGGAUC', 'RBM10 RRM1-ZnF (GST-tagged construct)', 1.02),
  ('ACUUAGU', 'RBM10 RRM1-ZnF (GST-tagged construct)', -0.435),
  ('AUCCGAU', 'RBM10 RRM1-ZnF (GST-tagged construct)', -0.717),
  ('ACCCACU', 'RBM10 RRM1-ZnF (GST-tagged construct)', -0.675),
  ('AUAGGCG', 'RBM10 RRM1-ZnF (GST-tagged construct)', 0.781),
  ('AAGGUGC', 'RBM10 RRM1-ZnF (GST-tagged construct)', 2.39),
  ('CGGGAUA', 'RBM10 RRM1-ZnF (GST-tagged construct)', 1.56),
  ('AAACCAA', 'RBM10 RRM1-ZnF (GST-tagged construct)', -0.548),
  ('GAGGUGG', 'RBM10 RRM1-ZnF (GST-tagged construct)', 3.35),
  ('AGCUAUG', 'RBM10 RRM1-ZnF (GST-tagged construct)', -0.168),
  ('UUGAGGG', 'RBM10 RRM1-ZnF (GST-tagged construct)', 3.4),
  ('AGGGAUU', 'RBM10 RRM1-ZnF (GST-tagged construct)', 2.3),
  ('AGGGAUA', 'RBM10 RRM1-ZnF (GST-tagged construct)', 4.2),
  ('CUGGCGG', 'RBM10 RRM1-ZnF (GST-tagged construct)', 0.508),
  ('UGUCGUA', 'RBM10 RRM1-ZnF (GST-tagged construct)', -0.311),
  ('AUGAGGG', 'RBM10 RRM1-ZnF (GST-tagged construct)', 3.84),
  ('UGACUCA', 'RBM10 RRM1-ZnF (GST-tagged construct)', -0.48),
  ('CGGCGGA', 'RBM10 RRM1-ZnF (GST-tagged construct)', 0.862),
  ('UAGUAGU', 'RBM10 RRM1-ZnF (GST-tagged construct)', -0.035),
  ('UCGUCAA', 'RBM10 RRM1-ZnF (GST-tagged construct)', -0.594),
  ('GUGAGGG', 'RBM10 RRM1-ZnF (GST-tagged construct)', 3.75),
  ('CACUCGC', 'RBM10 RRM1-ZnF (GST-tagged construct)', -0.604),
  ('UACCCAG', 'RBM10 RRM1-ZnF (GST-tagged construct)', -0.659),
  ('GCGCAAA', 'RBM10 RRM1-ZnF (GST-tagged construct)', -0.181),
  ('GGCCGAG', 'RBM10 RRM1-ZnF (GST-tagged construct)', 0.462),
  ('CUAGGGU', 'RBM10 RRM1-ZnF (GST-tagged construct)', 2.25),
  ('UUAGGGA', 'RBM10 RRM1-ZnF (GST-tagged construct)', 2.03),
  ('UACAAGA', 'RBM10 RRM1-ZnF (GST-tagged construct)', -0.295),
  ('AUAGGUG', 'RBM10 RRM1-ZnF (GST-tagged construct)', 2.64),
  ('UUGAGGC', 'RBM10 RRM1-ZnF (GST-tagged construct)', 0.115),
  ('AAACCUC', 'RBM10 RRM1-ZnF (GST-tagged construct)', -0.802),
  ('GAUAGUC', 'RBM10 RRM1-ZnF (GST-tagged construct)', -0.279),
  ('GUAGGGU', 'RBM10 RRM1-ZnF (GST-tagged construct)', 4.46);

* * *

tested on: RBM10 RRM1-ZnF (GST-tagged construct); experiment: RNAcompete 7-mer binding Z-score; higher = stronger binding preference;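 note: 20 pmol protein with 1.5 nmol RNA pool for 30 min at 4°C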
Over roughly 16,000 sequences, “Z-score” has its median near -0.37; the highest 2% begin near 3.2. This excerpt belongs to a sample that is enriched for the highest values.
Records here are stratified by RNAcompete 7-mer binding Z-score; strata: class 1 (below 0.6), class 2 (0.6 to below 3), class 3 (3 or more)

INSERT INTO measurements (item_sequence, class_assignment) VALUES
  ('UAACUGA', 'class 1'),
  ('GAGCGGA', 'class 3'),
  ('ACCAGCC', 'class 1'),
  ('AGGUGAU', 'class 2'),
  ('GAGCGGG', 'class 3'),
  ('CUGAAGG', 'class 2'),
  ('AGAUAGG', 'class 2'),
  ('GAGCGAC', 'class 1'),
  ('GAGCGAG', 'class 3'),
  ('GGAUAGG', 'class 3'),
  ('CACCGCG', 'class 1'),
  ('GGGGCGA', 'class 2'),
  ('AGGAAGG', 'class 3'),
  ('AGGAAGA', 'class 2'),
  ('UGGGGAA', 'class 3'),
  ('GUUGCGU', 'class 1'),
  ('GGGAUUG', 'class 3'),
  ('GUGGAAC', 'class 2'),
  ('UGGAAGU', 'class 2'),
  ('ACGCCGC', 'class 1'),
  ('ACGGUUG', 'class 2'),
  ('GACCAUU', 'class 1'),
  ('UAGCGGA', 'class 2'),
  ('GGGUGAG', 'class 3'),
  ('AUGGAAA', 'class 2'),
  ('GGGGGGA', 'class 3'),
  ('UGUUGAG', 'class 2'),
  ('CCCAAUG', 'class 1'),
  ('AAGAAGA', 'class 2'),
  ('UGGGGGA', 'class 3'),
  ('UGGGGCA', 'class 3'),
  ('AGUUAGU', 'class 1'),
  ('GUGGAAG', 'class 3'),
  ('GGGAUAA', 'class 3'),
  ('GGUUGAG', 'class 3'),
  ('CGUAUGC', 'class 1'),
  ('CCCUUAU', 'class 1'),
  ('AGUACAA', 'class 1'),
  ('CACCAAU', 'class 1'),
  ('UGAACAC', 'class 1'),
  ('UAGCGGC', 'class 1'),
  ('CGGAAGG', 'class 2'),
  ('CGGAUGA', 'class 2'),
  ('CAGCGGG', 'class 2'),
  ('UUGGGGA', 'class 2');

* * *

system: RBM10 RRM1-ZnF (GST-tagged construct); assay: RNAcompete 7-mer binding Z-score; higher = stronger binding preference;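 note: 20 pmol protein with 1.5 nmol RNA pool for 30 min at 4°C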
The full ranking holds about 16,000 sequences; the median of “Z-score” is about -0.37, and the highest 2% start at about 3.2. The full list was thinned out, with the highest values kept by preference.
VALUE TYPE: RNAcompete 7-mer binding Z-score

INSERT INTO assay_data (item_sequence, endpoint_value) VALUES
  ('AGGGUCA', 1.14),
  ('CGGAGAA', 1.36),
  ('GGGCCGU', 0.53),
  ('CCACUGG', -0.152),
  ('CGGGUAG', 2.18),
  ('ACUAUCU', -0.759),
  ('UGGGUAU', 2.37),
  ('CCGGAGC', 0.0625),
  ('AUAGGGA', 2.86),
  ('CGAAGCU', -0.691),
  ('AGGGUAG', 3.72),
  ('AGGGUAC', 2.1),
  ('GCAGGGA', 2.92),
  ('CUAGGAG', 0.608),
  ('AUAGGGC', 1.72),
  ('CCCUUGC', -0.694),
  ('UGGGUAG', 3.5),
  ('AACGUCA', -0.574),
  ('GAGGAGA', 1.69),
  ('CAAUGAA', -0.496),
  ('UGAUGAC', -0.0512),
  ('GUAGGAG', 3.43);
